Target: Human Polymorphonuclear Leukocyte Elastase (Homo sapiens)
Construct: Crude extract of human polymorphonuclear leukocytes (PMN) containing elastase activity; endogenous in cells; host or cells: human polymorphonuclear leukocytes (crude extract)
Assay: Inhibition of human polymorphonuclear leukocyte (granulocyte) elastase via hydrolysis of Boc-AAPAN
Assay type: biochemical
Experimental Readout: IC50 (µM)
Give a bare numeral; the unit µM is implied.

Query string: Which IC50 value is on record for CC1(C)[C@H](C(=O)OCc2ccccc2)N2C(=O)[C@@H](NC(=O)C(F)(F)F)[C@H]2S1(=O)=O ?
Result string: 4.6

Query string: Which IC50 value is on record for CC1(C)[C@H](C(=O)OCc2ccccc2)N2C(=O)[C@H](COC(=O)NCc3ccccc3)[C@H]2S1(=O)=O ?
Result string: 8.22

Query string: Which IC50 value is on record for CC(OC(=O)NCc1ccccc1)[C@H]1C(=O)N2[C@@H](C(=O)OCc3ccccc3)C(C)(C)S(=O)(=O)[C@H]12 (stereo partly drawn) [drawing 28 / 2 / OBZ] ?
Result string: 1.2

====

Target: Human Polymorphonuclear Leukocyte Elastase (Homo sapiens, UniProt P08246)
Construct: Crude extract of human polymorphonuclear leukocytes (PMN) containing elastase activity; endogenous in cells; host or cells: human polymorphonuclear leukocytes (crude extract)
Sequence (P08246 30-247 limits assumed): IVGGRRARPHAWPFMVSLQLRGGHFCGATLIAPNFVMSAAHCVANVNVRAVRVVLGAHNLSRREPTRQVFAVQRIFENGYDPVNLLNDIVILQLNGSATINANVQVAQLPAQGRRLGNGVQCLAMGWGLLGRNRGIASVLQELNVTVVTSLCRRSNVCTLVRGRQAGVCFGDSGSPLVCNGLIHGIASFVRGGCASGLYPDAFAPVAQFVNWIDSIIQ
Experiment: Inhibition of human polymorphonuclear leukocyte (granulocyte) elastase via hydrolysis of Boc-AAPAN
Type: biochemical
Details: crude human PMN extract, 0.2 mM Boc-AAPAN, pH 7.5, 410 mμ, 2 minutes after zero time; read-out: IC50 (dosage for 50% inhibition of the enzyme activity) (converted)
Experimental: Enzyme assay for the Inhibition of Human Polymorphonuclear Leukocyte Elastase Via Hydrolysis of N-t-Boc-alanyl-alanyl-prolylalanine-p-nitroanilide 0.05M TES (N-tris[hydroxymethyl]methyl-2-amino-ethanesulfonic acid) buffer, pH 7.5. […] To 1.0 ml of 0.2 mM Boc-AAPAN in a cuvette, 0.01-0.1 ml of DMSO with or without inhibitor was added. […] 0.05 Milliliters of PMN extract was then added and the αOD/minute at 410 mμ was measured and recorded. […]
Experimental Readout: IC50
Be sure to follow the number with its unit.

Query string: For Human Polymorphonuclear Leukocyte Elastase (Homo sapiens, UniProt P08246), provide IC50 of CO[C@@]1(NC(=O)C(F)(F)F)C(=O)N2[C@@H](C(=O)OCc3ccccc3)C(C)(C)S(=O)(=O)[C@@H]21 [β-CF3 CONH / α-CH3 O / 2 / OBZ] please.
Result string: 19400 nM

Query string: For Human Polymorphonuclear Leukocyte Elastase (Homo sapiens, UniProt P08246), provide IC50 of CC1(C)[C@H](C(=O)OCc2ccc(C(=O)O)cc2)N2C(=O)[C@@H](NC(=O)C(F)(F)F)[C@H]2S1(=O)=O [6β-CF3 (CO)NH / 2 / OBZ(p-COOH)] please.
Result string: 2090 nM

Query string: For Human Polymorphonuclear Leukocyte Elastase (Homo sapiens, UniProt P08246), provide IC50 of CCC1(N(C)C(=O)C(F)(F)F)C(=O)N2C1[S+]([O-])C(C)(C)C2C(=O)OCc1ccccc1 (stereo not drawn) [β-CF3 CON(CH3) / α-C2 H5 / 1 / OBZ] please.
Result string: 43400 nM

Query string: For Human Polymorphonuclear Leukocyte Elastase (Homo sapiens, UniProt P08246), provide IC50 of CC1(C)[C@H](C(=O)OCc2ccc(C(=O)O)cc2)N2C(=O)[C@H](NC(=O)C(F)(F)F)[C@H]2S1(=O)=O [6α-CF3 (CO)NH / 2 / OBZ(p-COOH)] please.
Result string: 83.6 nM

Query string: For Human Polymorphonuclear Leukocyte Elastase (Homo sapiens, UniProt P08246), provide IC50 of CN(Cc1ccccc1)C(=O)[C@@H]1N2C(=O)[C@@H](NC(=O)C(F)(F)F)[C@H]2SC1(C)C [6β-CF3 (CO)NH / 0 / N(CH3)(BZ)] please.
Result string: 1440 nM

Query string: For Human Polymorphonuclear Leukocyte Elastase (Homo sapiens, UniProt P08246), provide IC50 of CC(C)(C)OC(=O)c1ccc(COC(=O)[C@@H]2N3C(=O)[C@H](NC(=O)C(F)(F)F)[C@H]3S(=O)(=O)C2(C)C)cc1 [6α-CF3 (CO)NH / 2 / OBZ(p-COOtBu)] please.
Result string: 187 nM
